target: CCAAT/enhancer-binding protein beta (Homo sapiens) (UniProt P17676); test: ATG_C_EBP_CIS: Attagene CIS-FACTORIAL HepG2 Assay for human CCAAT/Enhancer Binding Protein (C/EBP) beta (AID 2282927); conditions: HepG2 Attagene cis-factorial transcription factor reporter; actives raise or lower the signal
Sequence (P17676 whole entry, looked up): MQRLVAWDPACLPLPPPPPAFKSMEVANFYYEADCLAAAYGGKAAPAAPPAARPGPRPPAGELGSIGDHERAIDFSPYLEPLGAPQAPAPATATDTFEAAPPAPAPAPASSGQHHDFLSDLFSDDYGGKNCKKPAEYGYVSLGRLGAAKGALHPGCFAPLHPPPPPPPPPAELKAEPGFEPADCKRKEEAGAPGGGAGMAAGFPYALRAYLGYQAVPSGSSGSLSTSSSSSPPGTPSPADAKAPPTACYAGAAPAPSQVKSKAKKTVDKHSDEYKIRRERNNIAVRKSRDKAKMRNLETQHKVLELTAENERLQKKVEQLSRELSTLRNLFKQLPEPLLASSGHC
Calls of active or inactive are those of the source. The calls were made as follows: active = hit-call score of the fitted dose curve at least 0.9, where 1 is the maximum; inactive = score below 0.9.
measured attribute: outcome

Cc1cccc(N)c1 :: inactive
CCCCOCC1CO1 (stereo not drawn) :: inactive
CCOP(=S)(OCC)SCS(=O)(=O)CC :: inactive

###

molecular target: Myc proto-oncogene protein (Homo sapiens); experiment: ATG_Myc_CIS: Attagene CIS-FACTORIAL HepG2 Assay for human Myelocytomatosis (Myc) Proto-Oncogene Transcription Factor (AID 2282990); conditions: HepG2, Attagene cis-reporter transcription factor activity; actives raise or lower the signal
Activity calls are given as the source filed them. The calls were made as follows: active = hit-call score of the fitted dose curve at least 0.9, where 1 is the maximum; inactive = score below 0.9.
Choose the fitting class; nothing outside active, inactive is accepted.

Would you please look over these solved cases?
O=C(O)C(F)(OC(F)(F)C(F)(F)C(F)(F)F)C(F)(F)F (centres undefined) :: inactive
[N-]=[N+]=[N-] :: active
CCCCOCCOP(=O)(OCCOCCCC)OCCOCCCC :: inactive
O=[N+]([O-])c1cc(Cl)ccc1Cl :: inactive
CC(C)(C)OOC(C)(C)C :: inactive
COC(N)=O :: inactive
O=S(=O)(F)C(F)(F)C(F)(F)C(F)(F)C(F)(F)C(F)(F)C(F)(F)C(F)(F)C(F)(F)F :: inactive
COC(=O)C(F)(F)C(F)(F)OC(F)(C(F)(F)F)C(F)(F)OC(F)=C(F)F (centres undefined) :: inactive
OCC(F)(F)OC(F)(F)C(F)(F)OC(F)(F)C(F)(F)OC(F)(F)CO :: inactive
O=C(O)C(F)(F)C(F)(F)C(=O)O :: inactive

## Task Short answer needed: outcome of this test for "CCOP(=S)(OCC)SCSc1ccc(Cl)cc1" ?
## Result inactive

## Task Identify the outcome logged in this assay for the molecule shown: "CCCCN(CC)C(=O)SCCC"
## Result inactive

## Task For this molecule, state the assay outcome: "CC(C)(C)c1ccc(O)cc1"
## Result inactive

## Task Which outcome did this test record for the molecule "CCCN(CCC)c1c([N+](=O)[O-])cc(C(C)C)cc1[N+](=O)[O-]" ?
## Result inactive

## Task Query: recorded result category for "Nc1ccc(Sc2ccc(N)cc2)cc1" in this test
## Result inactive
